src = paper PMC4081063

# systemTested: TBP (human TATA binding protein) (Homo sapiens, UniProt P20226 1-339)
# Sequence (P20226 whole entry): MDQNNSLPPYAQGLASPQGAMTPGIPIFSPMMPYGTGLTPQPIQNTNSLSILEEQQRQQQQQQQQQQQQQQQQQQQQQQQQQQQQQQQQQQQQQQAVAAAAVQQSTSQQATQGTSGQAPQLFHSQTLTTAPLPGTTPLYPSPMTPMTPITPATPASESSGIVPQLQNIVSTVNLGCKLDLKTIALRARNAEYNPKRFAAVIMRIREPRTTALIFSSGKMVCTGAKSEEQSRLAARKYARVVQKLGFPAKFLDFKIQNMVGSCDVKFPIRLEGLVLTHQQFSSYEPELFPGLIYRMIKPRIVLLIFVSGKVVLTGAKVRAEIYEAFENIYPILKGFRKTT
# measurementProtocol: bulk FRET; 150 mM KCl, 4 mM Mg2+; 20 mM Tris pH 7.9, 4 mM MgCl2, 1 mM DTT, 5% glycerol, 5-150 mM KCl as indicated, 1 nM labeled DNA (1-5 nM in Results), 20 min; 25 C (37 C tested)
# conditions: protein: recombinant; label: 5' donor and internal amino-dT acceptor 14 bp away, same strand; blunt
endpointLabel: Kd (nM)
Express it in nM; write the number only.

// query Give the measured Kd of TATA-14I (dsDNA) DNA 1: TGGTATAAAAGGGTGCGGACACGTG DNA 2: CACGTGTCCGCACCCTTTTATACCA .
// result 6
